Kindly find below IC50 information for UniProtKB Q06187 taken from the literature.

Recorded IC50 for Cc1cc(-c2nc(N3CCOCC3)cn3nccc23)ccc1CNC(=O)c1cn(C(C)(C)C)nn1 on UniProtKB Q06187 was 1 to 10 nM

Recorded IC50 for CC(C)(C)c1ccc(C(=O)NCc2ccc(-c3ccnc4[nH]ccc34)nc2)nc1 on UniProtKB Q06187 was 100 to 999 nM

Recorded IC50 for CN1CC[C@@H](n2cc(Nc3nccc(-c4ccc(CNC(=O)N5CCC(C(C)(C)C)C5)c(C(F)(F)F)c4)n3)cn2)C1 (some centres unmarked) on UniProtKB Q06187 was < 10 nM

Recorded IC50 for NC(=O)c1nnc2c(-c3ccc4nc(C5CCCC5)[nH]c4c3)cccc2c1N on UniProtKB Q06187 was 1260 nM

Recorded IC50 for C=CC(=O)N1CCC[C@H](n2cc(-c3ccc(Oc4ccccc4)cc3)c3c(N)ncnc32)C1 on UniProtKB Q06187 was 17.3 nM

Recorded IC50 for C=CC(=O)N[C@H]1CC[C@@H](Nc2nc(Nc3ccc(C(=O)NC4CCN(C)CC4)c(F)c3)nc3ccsc23)CC1 on UniProtKB Q06187 was 50 to 100 nM

Recorded IC50 for CC1CCC(Nc2nc3ccc(-c4cccc5c(N)c(C(N)=O)nnc45)cc3[nH]2)CC1 (centres unmarked) on UniProtKB Q06187 was 79.4 nM

Recorded IC50 for CC(C)OC1CN(C(=O)NC2CNCCc3cc(-c4ccnc(Nc5cnn(C)c5)n4)ccc32)C1 (centres unmarked) on UniProtKB Q06187 was 10 to 99 nM

* * *

pIC50: −log10 of the molar value.
Kindly find below pIC50 information for BTK (Homo sapiens, UniProt Q06187) taken from the literature.

[
  {
    "compound": "C=CC(=O)N1CCN(c2ccc(C(N)=O)c(-c3ccc(Oc4ccc(C#N)cc4)cc3)n2)CC1",
    "pIC50": "≤ 6.00"
  },
  {
    "compound": "CCCS(=O)(=O)Nc1ccc(F)c(C(=O)c2c[nH]c3ncc(OC)cc23)c1F",
    "pIC50": "≥ 5.00"
  },
  {
    "compound": "CCN1CCn2nc(Nc3nccc(-c4ccc(CNC(=O)c5cnc(C(C)(C)C)s5)c(C)c4)n3)cc2C1",
    "pIC50": "> 8.00"
  },
  {
    "compound": "C=CC(=O)Nc1cccc(Oc2nc(Nc3ccc(N4CCN(C(C)C)CC4)cc3)nc3ccsc23)c1",
    "pIC50": "≥ 7.30"
  }
]

For record CC(C)(C)c1ccc(C(=O)NCc2ccc(-c3ncnc4[nH]ccc34)cc2)cn1 the listed pIC50 is 6.00 to 7.00

For record C=CC(=O)Nc1ccc(F)c(-c2cc(CN3CCOCC3)cc(Nc3ncc(C)s3)n2)c1 the listed pIC50 is 8.72

For record C=CC(=O)Nc1cccc(-n2c(=O)ccc3cnc4ccc(-c5ccc(N)nc5)cc4c32)c1 the listed pIC50 is 7.72

For record O=C(CNc1c(F)cccc1F)N[C@@H]1CCCN(c2ncnc3[nH]ccc23)C1 the listed pIC50 is 6.00 to 7.00

For record C=CC(=O)N1CCC[C@@H](n2nc(-c3ccc(Oc4cccc(F)c4)cc3)c3cncnc32)C1 the listed pIC50 is > 7.00

For record C=CC(=O)N1CC[C@@H](n2c(=O)n(-c3ccc(C)c(OC)c3)c3c(N)ncnc32)C1 the listed pIC50 is > 7.00

For record C=CC(=O)N1CCC(c2cc(-c3ccc(Oc4ccccc4)cc3)cc3cnc(N)nc23)C1 (stereo not shown) the listed pIC50 is > 7.00

For record C=CC(=O)N1CC(Nc2cncc(-c3cnc(Oc4ccc(F)c(Cl)c4)nc3)c2)C1 the listed pIC50 is 7.42
